# STUDY SYSTEM: MPXV ortholog of the A27 VACV protein (monkeypox virus)
# ASSAY OVERVIEW: purified antigen ELISA
MEASURED ENDPOINT: EC50 (µg/mL)
Your answer is read as µg/mL, so omit the unit and give the number.

VACV-154 (antibody, V domains shown) VH: EVQLLESGGGLVQPGESLRLSCAASGFTLRNYAMSWVRQTPGKGLEWVSAISGSGGSTYYADSVKGRFTISRDTSKNTLYVQMNSLRAEDTAVYYCAKIRLDSSGYSGAFDIWGQGTRVTVSS VL: SYELTQPPSVSVSPGQTARITCSGDALPKQYASWYQQKPGQAPVLVIYKDSERPSGIPERFSGSSSGTTVTLTISGVQAEDEADYYCQSADSSGTYPVVFGGGTQLTVL :: 0.06
VACV-303 (antibody, V domains shown) VH: EVQLLESGGGLVQPGGSLRLSCAASGFTFSSYAMSWVRQAPGKGLEWVSAISGTGGNTYYADSVKGRFTISRDKSKNTLYLQMHSLRAEDTAVYYCATSLIWWLQSDYWGQGTLVTVSS VL: DIQMTQSPSSLSASVGDRVTITCRASQSIASYLIWYQQKPGNAPKLLIYAASSLQSGVPSRFSGSGSGTDFTLTISSLQPEDFATYYCQQSYSTPQTFGQGTKVDIK :: 0.02
VACV-301 (antibody, V domains shown) VH: EVQLLESGGGLVQPGGSLRLSCAASGFSFSSYAMSWVRQAPGKGLEWVSGIGNSGDRTFYADSAKGRFTIFRDNSNNRLYLQMNSLRAADTAVYYCAKWGRFESGAFWGQGVLVTVSS VL: SYELTQSPSVSVSPGQTARITCSGDALPEQYAYWYQQKPGQAPVLVIYKDSERPSGIPERFSGSGSGTTVTLTITGVQAEDEADYYCQSADNSGTYEVFGTGTKVTVL :: 0.04

Turning to the following binder.
In: Answer with reported EC50 of VACV-300 (antibody, V domains shown) V domain 1: QVQLVQSGAEVKKPGSSVKVSCKASGGTFSSYAISWVRQAPGQGLEWMGGIIPIFGTANYAQKFQGRVTITADESTGTAYMELTSLRSEDTAIYYCARASEQWLASINWFDPWGQGTLVTVSS V domain 2: QSALTQPASVSGSPGQSITISCTGTSSDVGSYNLVSWYQQHPGKAPKLMIYEVSKRPSGVSNRFSASKSGNTASLTISGLQAEDEADYYCCSYAGSSTLVFGGGTQVTVL
Out: 0.14
